Where do these numbers come from? They come from ChEMBL document CHEMBL1275561.

Test system: Anaerococcus prevotii
Test: Antimicrobial activity against Anaerococcus prevotii by agar dilution method
Format: functional
The compounds listed here are annotated with their log10 of MIC50.
Hello, just confirming the data are log10 of MIC50 with units of µg/mL.

compound: CN[C@H](CC(C)C)C(=O)N[C@H]1C(=O)N[C@@H](CC(N)=O)C(=O)N[C@H]2C(=O)N[C@H]3C(=O)N[C@H](C(=O)N[C@H](C(=O)O)c4cc(O)cc(O)c4-c4cc3ccc4O)[C@H](O)c3ccc(c(Cl)c3)Oc3cc2cc(c3O[C@@H]2O[C@H](CO)[C@@H](O)[C@H](O)[C@H]2O[C@H]2C[C@](C)(N)[C@H](O)[C@H](C)O2)Oc2ccc(cc2Cl)[C@H]1O
attributeMeasured: log10 of MIC50
assayResult: 0.00

# input for lookup
Input CO[C@@]1(NC(=O)Cc2cccs2)C(=O)N2C(C(=O)O)=C(COC(N)=O)CS[C@@H]21 . Output log10 of MIC50: 0.00

* * *

System: Clostridium subterminale
Experiment: Antimicrobial activity against Clostridium subterminale by agar dilution method
Type: functional
attributeMeasured: MIC90

The cases that follow already have their MIC90 on record.
compound: C[C@@H](O)[C@H]1C(=O)N2C(C(=O)O)=C(SCCNC=N)C[C@H]12 [IMIPENEM ANHYDROUS]
MIC90: 2 µg/mL
//
compound: Cc1ncc([N+](=O)[O-])n1CCO
MIC90: 2 µg/mL
//
compound: C[C@@H](O)[C@H]1C(=O)N2C(C(=O)O)=C(S[C@@H]3CN[C@H](C(=O)Nc4cccc(C(=O)O)c4)C3)[C@H](C)[C@H]12
MIC90: 8 µg/mL
//
compound: CO[C@@]1(NC(=O)Cc2cccs2)C(=O)N2C(C(=O)O)=C(COC(N)=O)CS[C@@H]21
MIC90: > 128 µg/mL
//
compound: CCC[C@@H]1C[C@@H](C(=O)N[C@@H]([C@H]2O[C@H](SC)[C@H](O)[C@@H](O)[C@H]2O)[C@H](C)Cl)N(C)C1
MIC90: 32 µg/mL

Lab book: MIC90 of CC(=O)NC[C@H]1CN(c2ccc(N3CCOCC3)c(F)c2)C(=O)O1 noted as 8 µg/mL

Record summary for CN[C@H](CC(C)C)C(=O)N[C@H]1C(=O)N[C@@H](CC(N)=O)C(=O)N[C@H]2C(=O)N[C@H]3C(=O)N[C@H](C(=O)N[C@H](C(=O)O)c4cc(O)cc(O)c4-c4cc3ccc4O)[C@H](O)c3ccc(c(Cl)c3)Oc3cc2cc(c3O[C@@H]2O[C@H](CO)[C@@H](O)[C@H](O)[C@H]2O[C@H]2C[C@](C)(N)[C@H](O)[C@H](C)O2)Oc2ccc(cc2Cl)[C@H]1O : reported MIC90 = 16 µg/mL

For reference, reported MIC90 for C[C@@H](O)[C@H]1C(=O)N2C(C(=O)O)=C(S[C@@H]3CN[C@H](CNS(N)(=O)=O)C3)[C@H](C)[C@H]12 stands at 2 µg/mL

Given item C[C@@H](O)[C@H]1C(=O)N2C(C(=O)O)=C(S[C@@H]3CN[C@H](C(=O)N(C)C)C3)[C@H](C)[C@H]12 , the value recorded as its MIC90 is 2 µg/mL

* * *

Test system: Bacteroides eggerthii
Assay: Antimicrobial activity against Bacteroides eggerthii by agar dilution method
Format: functional
Each entry below carries its recorded log10 MIC50.
Could you please treat all values as log10 of MIC50 in µg/mL?

Illustrative cases are given below, each with its answer.
compound: C[C@@H](O)[C@H]1C(=O)N2C(C(=O)O)=C(S[C@@H]3CN[C@H](CNS(N)(=O)=O)C3)[C@H](C)[C@H]12
systemName: Bacteroides eggerthii
log10 MIC50: -0.30
--
compound: CCC[C@@H]1C[C@@H](C(=O)N[C@@H]([C@H]2O[C@H](SC)[C@H](O)[C@@H](O)[C@H]2O)[C@H](C)Cl)N(C)C1
systemName: Bacteroides eggerthii
log10 MIC50: 0.00
--
compound: C[C@@H](O)[C@H]1C(=O)N2C(C(=O)O)=C(S[C@@H]3CN[C@H](C(=O)Nc4cccc(C(=O)O)c4)C3)[C@H](C)[C@H]12
systemName: Bacteroides eggerthii
log10 MIC50: 0.00
--
compound: CO[C@@]1(NC(=O)Cc2cccs2)C(=O)N2C(C(=O)O)=C(COC(N)=O)CS[C@@H]21
systemName: Bacteroides eggerthii
log10 MIC50: 1.20
--
compound: COc1c(N2C[C@@H]3CCCN[C@@H]3C2)c(F)cc2c(=O)c(C(=O)O)cn(C3CC3)c12
systemName: Bacteroides eggerthii
log10 MIC50: 0.30
--
compound: C[C@@H](O)[C@H]1C(=O)N2C(C(=O)O)=C(SCCNC=N)C[C@H]12 [IMIPENEM ANHYDROUS]
systemName: Bacteroides eggerthii
log10 MIC50: -0.30

Now let's try a different one.
Recorded result, C[C@@H](O)[C@H]1C(=O)N2C(C(=O)O)=C(S[C@@H]3CN[C@H](C(=O)N(C)C)C3)[C@H](C)[C@H]12 , log10 MIC50: -0.60
